targetEntity: Peroxisome proliferator-activated receptor alpha (Homo sapiens, UniProt Q07869)
Sequence (Q07869 whole entry): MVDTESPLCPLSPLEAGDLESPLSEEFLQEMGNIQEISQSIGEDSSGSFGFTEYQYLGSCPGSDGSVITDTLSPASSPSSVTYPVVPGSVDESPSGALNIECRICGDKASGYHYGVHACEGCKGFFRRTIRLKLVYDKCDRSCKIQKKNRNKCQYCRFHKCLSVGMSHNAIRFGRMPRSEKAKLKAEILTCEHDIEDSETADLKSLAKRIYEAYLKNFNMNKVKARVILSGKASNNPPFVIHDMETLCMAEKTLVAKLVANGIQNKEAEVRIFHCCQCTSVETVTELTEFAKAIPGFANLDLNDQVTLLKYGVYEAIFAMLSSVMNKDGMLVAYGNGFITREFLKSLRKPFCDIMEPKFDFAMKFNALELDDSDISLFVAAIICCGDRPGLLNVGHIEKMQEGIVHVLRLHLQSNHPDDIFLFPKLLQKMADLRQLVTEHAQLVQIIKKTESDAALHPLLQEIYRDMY
Reported pEC50 values for a set of compounds
Give only the number. pEC50 is defined as minus log10 of concentration in molar units.

CC(C)(Oc1ccc(Cl)cc1)C(=O)O
4.26

## Input So what's the measured pEC50 for this one? CCCCCCCN(CCc1ccc(OC(C)(C)C(=O)O)cc1)C(=O)Nc1ccc(F)cc1F
## Output 6.10

## Input So what's the measured pEC50 for this one? CCCCCCCN(CCc1ccc(OC(C)(C)C(=O)O)cc1)C(=O)Nc1ccc(F)cc1
## Output 6.39

## Input So what's the measured pEC50 for this one? CC(C)(Oc1ccc(CCN(CCCCCC2CCCCC2)C(=O)Nc2ccc(F)cc2)cc1)C(=O)O
## Output 6.82
